The measured values listed here are drawn from patent US4650874A.

system: spontaneously hypertensive rats; experiment: Anti-hypertensive activity in the unanesthetized spontaneously hypertensive rat (SHR) assay; format: in vivo; settings: oral; intragastrically 50 mg/kg, SHR
measure_name: Oral Activity (Blood Pressure Lowering)

Clc1ccc(COc2ccc(CN3CCC(C(c4ccccc4)c4ccccc4)CC3)cc2)cc1 [Example 14]    active
Fc1ccccc1COc1ccc(CN2CCC(C(c3ccccc3)c3ccccc3)CC2)cc1 [Example 18]    active
COc1cc(CN2CCC(C(c3ccccc3)c3ccccc3)CC2)ccc1OCc1ccccc1 [Example 21]    active

###

Hi there, I'd appreciate the recorded Kb for every entry that follows.
molecular target: vascular smooth muscle (isolated thoracic aorta segments) (Rattus norvegicus, UniProt P22002); construct: The excised aorta segment was mounted in a tissue bath containing modified Krebs solution; from tissue; host or cells: thoracic aorta segments of male spontaneously hypertensive rats; assay: Calcium antagonism in vascular smooth muscle (isolated thoracic aorta segments from male spontaneously hypertensive rats); assay type: cell-based; settings: 1×10^-6 M, one hour incubation; K+ (100 mM) depolarized SHR aorta; read-out: pA2 (Ca++ Antagonism) (converted)
Sequence (P22002 whole entry): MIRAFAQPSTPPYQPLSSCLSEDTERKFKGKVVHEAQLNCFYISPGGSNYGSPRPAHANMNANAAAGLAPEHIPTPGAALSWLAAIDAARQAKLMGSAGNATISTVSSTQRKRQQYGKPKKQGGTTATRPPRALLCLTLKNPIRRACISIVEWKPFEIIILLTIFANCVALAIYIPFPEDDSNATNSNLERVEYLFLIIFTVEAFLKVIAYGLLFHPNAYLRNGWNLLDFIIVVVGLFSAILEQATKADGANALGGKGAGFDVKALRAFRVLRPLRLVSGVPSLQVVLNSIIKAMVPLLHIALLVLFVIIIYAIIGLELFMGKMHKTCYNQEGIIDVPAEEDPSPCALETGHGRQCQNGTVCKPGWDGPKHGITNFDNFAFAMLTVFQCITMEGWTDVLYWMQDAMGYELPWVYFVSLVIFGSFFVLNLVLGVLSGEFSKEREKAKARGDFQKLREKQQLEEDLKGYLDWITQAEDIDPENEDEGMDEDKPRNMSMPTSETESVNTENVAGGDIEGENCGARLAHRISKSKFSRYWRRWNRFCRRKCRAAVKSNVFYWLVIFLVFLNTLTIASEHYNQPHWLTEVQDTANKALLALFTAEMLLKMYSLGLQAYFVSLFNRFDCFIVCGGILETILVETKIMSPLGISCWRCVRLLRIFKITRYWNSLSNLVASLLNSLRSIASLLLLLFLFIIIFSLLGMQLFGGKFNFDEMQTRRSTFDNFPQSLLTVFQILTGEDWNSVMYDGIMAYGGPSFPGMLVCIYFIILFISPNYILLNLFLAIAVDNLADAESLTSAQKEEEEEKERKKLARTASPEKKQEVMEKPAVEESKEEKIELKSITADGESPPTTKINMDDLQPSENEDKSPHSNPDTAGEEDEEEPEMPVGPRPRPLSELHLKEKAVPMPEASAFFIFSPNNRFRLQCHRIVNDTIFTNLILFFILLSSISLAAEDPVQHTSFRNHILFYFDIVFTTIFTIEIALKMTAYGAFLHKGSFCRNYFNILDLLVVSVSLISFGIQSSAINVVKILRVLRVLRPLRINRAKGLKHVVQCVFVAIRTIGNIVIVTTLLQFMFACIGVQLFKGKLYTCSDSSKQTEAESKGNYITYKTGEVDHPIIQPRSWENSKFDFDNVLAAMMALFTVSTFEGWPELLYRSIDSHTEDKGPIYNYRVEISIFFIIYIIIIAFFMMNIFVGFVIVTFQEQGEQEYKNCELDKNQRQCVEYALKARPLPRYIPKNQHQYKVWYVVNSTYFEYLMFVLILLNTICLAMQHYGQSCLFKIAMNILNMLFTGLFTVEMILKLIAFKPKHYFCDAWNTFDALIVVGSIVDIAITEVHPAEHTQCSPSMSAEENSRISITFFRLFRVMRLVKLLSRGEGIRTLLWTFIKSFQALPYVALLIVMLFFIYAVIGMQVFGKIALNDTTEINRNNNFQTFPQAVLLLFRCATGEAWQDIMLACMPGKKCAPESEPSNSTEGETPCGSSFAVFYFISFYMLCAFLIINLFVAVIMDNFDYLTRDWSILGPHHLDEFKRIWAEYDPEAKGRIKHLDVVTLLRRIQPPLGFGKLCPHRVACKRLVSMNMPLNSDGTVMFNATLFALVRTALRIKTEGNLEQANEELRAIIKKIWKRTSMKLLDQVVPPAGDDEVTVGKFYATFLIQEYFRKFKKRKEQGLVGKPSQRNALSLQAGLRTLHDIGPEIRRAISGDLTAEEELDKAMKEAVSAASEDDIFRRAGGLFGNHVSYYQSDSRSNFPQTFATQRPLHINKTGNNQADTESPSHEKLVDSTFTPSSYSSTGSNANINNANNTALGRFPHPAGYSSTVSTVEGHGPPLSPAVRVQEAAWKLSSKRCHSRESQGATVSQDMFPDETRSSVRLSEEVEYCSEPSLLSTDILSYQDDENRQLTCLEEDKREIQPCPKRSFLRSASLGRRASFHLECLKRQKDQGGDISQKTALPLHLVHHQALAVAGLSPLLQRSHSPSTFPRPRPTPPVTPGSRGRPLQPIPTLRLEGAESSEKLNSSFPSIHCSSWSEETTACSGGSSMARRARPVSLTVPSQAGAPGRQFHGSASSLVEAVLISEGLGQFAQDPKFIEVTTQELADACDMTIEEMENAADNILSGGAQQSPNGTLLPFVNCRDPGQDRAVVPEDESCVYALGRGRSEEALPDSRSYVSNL
Counter-ions that a name gives are not always drawn.
// units = nM; emit number, no label

Lab note: Fc1ccc(C(c2ccc(F)cc2)C2CCN(Cc3ccc(OCc4ccc(Cl)cc4Cl)cc3)CC2)cc1 [Example 12, hydrochloride] gave Kb of 30.2

Lab note: "COc1ccc(CN2CCC(C(c3ccccc3)c3ccccc3)CC2)cc1OCc1ccccc1" gave Kb of 25.7

Lab note: "Clc1ccc(COc2ccc(CN3CCC(C(c4ccccc4)c4ccccc4)CC3)cc2)c(Cl)c1" gave Kb of 40.7

Lab note: "Fc1ccc(C(c2ccc(F)cc2)C2CCN(Cc3ccc(OCc4ccccc4)cc3)CC2)cc1" gave Kb of 26.9

Lab note: "Fc1ccccc1COc1ccc(CN2CCC(C(c3ccccc3)c3ccccc3)CC2)cc1" gave Kb of 70.8

Lab note: c1ccc(COc2ccc(CN3CCC(C(c4ccccc4)c4ccccc4)CC3)cc2)cc1 [Example 6, hydrochloride] gave Kb of 10.7

###

molecular target: vascular smooth muscle (isolated thoracic aorta segments) (Rattus norvegicus, UniProt P22002); construct: The excised aorta segment was mounted in a tissue bath containing modified Krebs solution; from tissue; host or cells: thoracic aorta segments of male spontaneously hypertensive rats; test: Calcium antagonism in vascular smooth muscle (isolated thoracic aorta segments from male spontaneously hypertensive rats); type: cell-based; details: 1×10^-6 M, one hour incubation; K+ (100 mM) depolarized SHR aorta; read-out: pA2 (Ca++ Antagonism) (converted)
Structures can show the parent of a compound that is named as a salt.
measure_name: log10 of Kb (log10 of the value in nM)
Note the log scale: values are log10 of Kb expressed in nM.

Lab note: "COc1ccc(COc2ccc(CN3CCC(C(c4ccc(F)cc4)c4ccc(F)cc4)CC3)cc2)cc1" gave log10 of Kb of 1.26

Lab note: "COc1ccc(COc2ccc(CN3CCC(C(c4ccccc4)c4ccccc4)CC3)cc2)cc1" gave log10 of Kb of 1.62

Lab note: "Fc1cccc(C(c2cccc(F)c2)C2CCN(Cc3ccc(OCc4ccccc4)cc3)CC2)c1" gave log10 of Kb of 1.11

Lab note: "CC(C)(C)NC(=O)c1cc(OCc2ccccc2)ccc1CN1CCC(C(c2ccccc2)c2ccccc2)CC1" gave log10 of Kb of 2.27

Lab note: "c1ccc(C(c2ccccc2)C2CCN(Cc3ccc(OCC4CCCCC4)cc3)CC2)cc1" gave log10 of Kb of 1.65

Lab note: "COc1ccc(CN2CCC(C(c3ccccc3)c3ccccc3)CC2)cc1OCc1ccc(Cl)cc1" gave log10 of Kb of 2.66

Lab note: Fc1ccc(C(c2ccc(F)cc2)C2CCN(Cc3ccc(OCc4ccc(Cl)cc4)cc3)CC2)cc1 [Example 11, hydrobromide] gave log10 of Kb of 0.94

Lab note: "Clc1ccc(COc2ccc(CN3CCC(C(c4ccccc4)c4ccccc4)CC3)cc2)cc1" gave log10 of Kb of 1.59
